# ASSAYED SYSTEM: C-C chemokine receptor type 3 (Homo sapiens)
# Sequence (P51677 whole entry): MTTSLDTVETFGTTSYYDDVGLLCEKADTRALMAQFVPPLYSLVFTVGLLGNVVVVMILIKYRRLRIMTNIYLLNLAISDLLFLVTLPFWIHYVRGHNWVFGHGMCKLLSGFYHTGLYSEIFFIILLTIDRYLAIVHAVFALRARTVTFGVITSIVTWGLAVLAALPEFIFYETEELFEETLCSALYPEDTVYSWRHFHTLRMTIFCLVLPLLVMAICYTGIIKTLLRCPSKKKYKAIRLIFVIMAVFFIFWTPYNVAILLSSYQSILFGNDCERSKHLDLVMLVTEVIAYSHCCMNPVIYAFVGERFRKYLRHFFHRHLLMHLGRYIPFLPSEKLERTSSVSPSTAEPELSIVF
# PROTOCOL DESCRIPTION: Displacement of [3H]-4-(2,4-dichloro-3-methylphenoxy)-l'-[4- (methylsulfonyl)benzoyl]-l,4'-bipiperidine from human recombinant CCR3 expressed in CHOK1 cells after 2 hrs by scintillation counting analysis
PROPERTY NAME: Ki (nM)
Respond with the bare value in nM.

Task: Given COc1cc(C(=O)NC[C@@H](O)CN2CCC(Oc3ccc(Cl)c(Cl)c3)CC2)ccc1N , state its recorded Ki.
Result: 3.98

Task: I would be grateful if you could share the reported Ki for O=C(Nc1ccccc1OCC(O)CN1CCC(Oc2ccc(Cl)c(Cl)c2)CC1)C1CCC1 (centres undefined) .
Result: 100

Task: Item CS(=O)(=O)c1ccc(C(=O)NC[C@@H](O)CN2CCC(Oc3ccc(Cl)c(Cl)c3)CC2)s1 has what recorded Ki?
Result: 251

Task: I'd like to know its Ki. The compound in question is O[C@@H](CNC1CCN(Cc2ccc(Cl)c(Cl)c2)CC1)COc1ccc2ncsc2c1
Result: 158

Task: Which value of Ki has been reported for N#Cc1cccc(OC[C@@H](O)CN2CCC(Oc3ccc(Cl)c(Cl)c3)CC2)c1 in the records?
Result: 251

Task: Reported Ki for O=C(NC[C@@H](O)CN1CCC(Oc2ccc(Cl)c(Cl)c2)CC1)c1n[nH]c2ccccc12 : what is it?
Result: 1.58

Task: Using the record for CS(=O)(=O)c1ccccc1C(=O)NC[C@@H](O)CN1CCC(Oc2ccc(Cl)c(Cl)c2)CC1 , report its Ki.
Result: 15.8

Task: Could you tell me which Ki is on file for COc1cccc(SC[C@@H](O)CN2CCC(Oc3ccc(Cl)c(Cl)c3)CC2)c1 ?
Result: 126

Task: Suppose we examine the compound N#Cc1cccc(OCCCN2CCC(Oc3ccc(Cl)c(Cl)c3)CC2)c1 ; what Ki value has been reported?
Result: 794
